Test system: B2M
Assay: Targeted PCR and NGS (amplicon sequencing) of on-target and off-target sites in genome-edited LSCs
Format: cell-based, human
Conditions: of the potential off-target loci sequenced
Readout name: Number of sites positive for off-target activity in LSCs

molecule="CR000455: gRNA targeting human B2M; targeting domain SEQ ID NO: 138; sgRNA SEQ ID NO: 175 (nucleic acid, listed as RNA, chemistry not given here) guide: UUACCCCACUUAACUAUCUUGUUUUAGAGCUAGAAAUAGCAAGUUAAAAUAAGGCUAGUCCGUUAUCAACUUGAAAAAGUGGCACCGAGUCGGUGCUUUU" result="0 of 46"
molecule="8-HEYJA000004: gRNA targeting human B2M; targeting domain SEQ ID NO: 115; sgRNA SEQ ID NO: 166 (nucleic acid, listed as RNA, chemistry not given here) guide: ACUCACGCUGGAUAGCCUCCGUUUUAGAGCUAGAAAUAGCAAGUUAAAAUAAGGCUAGUCCGUUAUCAACUUGAAAAAGUGGCACCGAGUCGGUGCUUUU" result="0 of 60"
molecule="1-CR004366: gRNA targeting human B2M; targeting domain SEQ ID NO: 108; sgRNA SEQ ID NO: 120; from Dharmacon (nucleic acid, listed as RNA, chemistry not given here, gRNA targeting human B2M; from Dharmacon) guide: GAGUAGCGCGAGCACAGCUAGUUUUAGAGCUAGAAAUAGCAAGUUAAAAUAAGGCUAGUCCGUUAUCAACUUGAAAAAGUGGCACCGAGUCGGUGCUUUU" result="0 of 64"
molecule="CR000442: gRNA targeting human B2M; targeting domain SEQ ID NO: 134; sgRNA SEQ ID NO: 171 (nucleic acid, listed as RNA, chemistry not given here) guide: GGCCACGGAGCGAGACAUCUGUUUUAGAGCUAGAAAUAGCAAGUUAAAAUAAGGCUAGUCCGUUAUCAACUUGAAAAAGUGGCACCGAGUCGGUGCUUUU" result="0 of 28"
molecule="9-HEYJA000005: gRNA targeting human B2M; targeting domain SEQ ID NO: 116; sgRNA SEQ ID NO: 167 (nucleic acid, listed as RNA, chemistry not given here) guide: UCACGUCAUCCAGCAGAGAAGUUUUAGAGCUAGAAAUAGCAAGUUAAAAUAAGGCUAGUCCGUUAUCAACUUGAAAAAGUGGCACCGAGUCGGUGCUUUU" result="0 of 35"
